IC50 reference
# Measured on: plasmin (Homo sapiens)
# Sequence (P00747 581-810 limits assumed): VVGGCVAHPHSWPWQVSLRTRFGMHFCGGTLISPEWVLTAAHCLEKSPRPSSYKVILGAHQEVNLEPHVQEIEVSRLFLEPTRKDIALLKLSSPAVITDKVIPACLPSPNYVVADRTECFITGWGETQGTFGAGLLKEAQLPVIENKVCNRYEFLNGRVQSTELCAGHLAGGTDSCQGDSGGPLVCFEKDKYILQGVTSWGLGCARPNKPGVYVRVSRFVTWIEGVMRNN
# Sequence (P00747 97-580 partner limits assumed): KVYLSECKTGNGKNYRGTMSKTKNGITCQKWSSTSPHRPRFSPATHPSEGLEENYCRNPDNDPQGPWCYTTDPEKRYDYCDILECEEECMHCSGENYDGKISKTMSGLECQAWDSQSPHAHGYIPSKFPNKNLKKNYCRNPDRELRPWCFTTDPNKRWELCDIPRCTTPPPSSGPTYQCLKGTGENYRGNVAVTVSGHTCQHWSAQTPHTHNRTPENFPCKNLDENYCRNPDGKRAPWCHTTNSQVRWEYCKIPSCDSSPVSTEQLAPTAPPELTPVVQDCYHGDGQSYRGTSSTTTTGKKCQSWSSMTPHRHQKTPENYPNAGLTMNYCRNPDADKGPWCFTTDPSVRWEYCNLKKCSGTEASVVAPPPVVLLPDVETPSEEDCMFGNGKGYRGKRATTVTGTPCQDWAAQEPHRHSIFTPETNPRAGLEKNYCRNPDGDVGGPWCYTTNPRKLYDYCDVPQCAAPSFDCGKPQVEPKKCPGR
# Assay remarks: biochemical
# Condition set: IC50 / off target protease selectivity

>  <Compound>
COc1ccnc(CNC(=O)c2cn(Cc3ccc(Cn4ccccc4=O)cc3)nc2C(F)(F)F)c1F [Compound 16]

>  <IC50>
> 10 µM

$$$$
>  <Compound>
COCc1nn(Cc2ccc(Cn3ccccc3=O)cc2)cc1C(=O)NCc1nccc(OC)c1C [Compound 14s]

>  <IC50>
> 10 µM

$$$$

###

pIC50 reference
# Measured on: factor XIa (Homo sapiens, UniProt P03951)
# Sequence (P03951 388-625 limits assumed): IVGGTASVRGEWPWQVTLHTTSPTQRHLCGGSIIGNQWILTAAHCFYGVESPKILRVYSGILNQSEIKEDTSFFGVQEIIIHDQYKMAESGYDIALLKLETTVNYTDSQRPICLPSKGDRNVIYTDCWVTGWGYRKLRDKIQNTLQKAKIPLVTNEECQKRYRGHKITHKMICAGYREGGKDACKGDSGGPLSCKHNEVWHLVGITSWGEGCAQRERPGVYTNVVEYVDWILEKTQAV
# Sequence (P03951 19-387 partner limits assumed): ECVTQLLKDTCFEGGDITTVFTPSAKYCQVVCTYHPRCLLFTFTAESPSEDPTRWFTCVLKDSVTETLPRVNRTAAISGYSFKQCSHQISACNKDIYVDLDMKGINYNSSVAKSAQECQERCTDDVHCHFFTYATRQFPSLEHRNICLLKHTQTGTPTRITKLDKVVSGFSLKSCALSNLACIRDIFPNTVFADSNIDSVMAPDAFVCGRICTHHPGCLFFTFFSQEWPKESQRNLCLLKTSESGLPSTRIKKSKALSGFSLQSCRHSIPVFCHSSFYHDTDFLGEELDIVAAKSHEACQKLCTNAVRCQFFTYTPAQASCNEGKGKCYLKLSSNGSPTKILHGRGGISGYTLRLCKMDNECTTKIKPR
pIC50: −log10 of the molar value.

>  <Compound>
COCc1nn(Cc2ccc(Cn3ccccc3=O)cc2)cc1C(=O)NCc1nccc(OC)c1C [Compound 14s]

>  <Measured on>
factor XIa (Homo sapiens, UniProt P03951)

>  <pIC50>
< 5.00

$$$$
>  <Compound>
COc1ccnc(CNC(=O)c2cn(Cc3ccc(Cn4ccccc4=O)cc3)nc2C(F)(F)F)c1F [Compound 16]

>  <Measured on>
factor XIa (Homo sapiens, UniProt P03951)

>  <pIC50>
< 5.00

$$$$

###

# Assay remarks: in vitro
# Condition set: human, Caco-2, pH 7.4
Recorded metric: Papp A→B

>  <Smiles structure>
Nc1nccc2cc(CNC(=O)c3cnn(Cc4ccc(Cn5ccccc5=O)cc4)c3)ccc12

>  <Experimental result>
2 ×10⁻⁶ cm/s

$$$$

###

# Assay remarks: in vitro
# Condition set: human, microsomes

>  <Smiles structure>
Nc1nccc2cc(CNC(=O)c3cnn(Cc4ccc(Cn5ccccc5=O)cc4)c3)ccc12

>  <microsomal CLint, µL/min/mg>
37

$$$$

###

# Measured on: factor XIIa (Homo sapiens)
# Sequence (P00748 373-615 limits assumed): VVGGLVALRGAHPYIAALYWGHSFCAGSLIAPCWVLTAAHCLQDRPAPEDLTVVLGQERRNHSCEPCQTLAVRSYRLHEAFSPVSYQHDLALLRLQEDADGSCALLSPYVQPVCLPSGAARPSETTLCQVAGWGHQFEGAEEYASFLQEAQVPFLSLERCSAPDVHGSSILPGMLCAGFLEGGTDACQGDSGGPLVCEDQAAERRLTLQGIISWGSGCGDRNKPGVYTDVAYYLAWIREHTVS
Recorded metric: IC50

>  <Compound>
COCc1nn(Cc2ccc(Cn3ccccc3=O)cc2)cc1C(=O)NCc1nccc(OC)c1C [Compound 14s]

>  <Measured on>
factor XIIa (Homo sapiens)

>  <Experimental result>
> 10 µM

$$$$
>  <Compound>
COc1ccnc(CNC(=O)c2cn(Cc3ccc(Cn4ccccc4=O)cc3)nc2C(F)(F)F)c1F

>  <Measured on>
factor XIIa (Homo sapiens)

>  <Experimental result>
> 10 µM

$$$$

###

Record set of IC50 for target or system thrombin (Homo sapiens, UniProt P00734).

>  <Molecule>
COc1ccnc(CNC(=O)c2cn(Cc3ccc(Cn4ccccc4=O)cc3)nc2C(F)(F)F)c1F

>  <Measured on>
thrombin (Homo sapiens, UniProt P00734)

>  <Unit abbrev>
µM

>  <Inequality symbol>
>

>  <IC50>
10

$$$$
>  <Molecule>
COCc1nn(Cc2ccc(Cn3ccccc3=O)cc2)cc1C(=O)NCc1nccc(OC)c1C [Compound 14s]

>  <Measured on>
thrombin (Homo sapiens, UniProt P00734)

>  <Unit abbrev>
µM

>  <Inequality symbol>
=

>  <IC50>
7.5

$$$$

Attribution: paper PMC9620001
